As shown below, each of these compounds has a reported normalized growth value.
# protocol: chemical genetic growth profiling, strain panel (AID 1159580);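 also: tested at 20 µM; growth read once vehicle control cultures reached saturation at 30 °C; 1 = growth at the plate median or of vehicle wells; lower values mean less growth of the strain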
# conditions used: S. cerevisiae deletion strains, growth OD, locus YLL026W, stronger effect = lower value
The whole screen tested about 5,500 compounds, of which about 2,000 (36%) were called active. About 18% were inconclusive and are not listed. The list shows a part of the results.

# compound, normalized growth
measured = [
    ("NS(=O)(=O)c1cc2c(cc1Cl)NC(C(Cl)Cl)NS2(=O)=O (stereo not drawn)", "0.991 (inactive)"),
]

# normalized growth lookup, item `COc1ccc(-c2coc3cc(OC)cc(OC)c3c2=O)cc1`
0.987 (inactive)

Same question for `CC(C)NC[C@H](O)COc1cccc2ccccc12` please.
0.98 (inactive)

====

# protocol: chemical genetic growth profiling, strain panel (AID 1159580)
# conditions used: S. cerevisiae deletion strains, growth OD, locus YOR290C, strain snf2, stronger effect = lower value
Counter-ions that a name gives are not always drawn. The whole screen tested about 5,500 compounds, of which about 2,000 (36%) were called active. Another 18% or so got no clear call; they are omitted. Some of the results follow. Where a SMILES comes first, the peptide text is derived from it. The star is where a group is joined. Tfa = O=C(C(F)(F)F)*
measurement name: normalized growth
I'd appreciate a reply containing only the number, no unit.

Worked examples, 8 compounds total:
# compound, normalized growth
measured = [
    ("O=C1C=C2C=C[C@@H]3C[C@@]2(O1)[C@H]1CCCCN31", 1.05),
    ("C=CCSCC1Nc2cc(Cl)c(S(N)(=O)=O)cc2S(=O)(=O)N1 (configuration not stated)", 0.987),
    ("CCCCOC(=O)c1ccccc1C(=O)OCCCC", 0.975),
    ("CO/N=C(\\C(=O)NC1C(=O)N2C(C(=O)O)=C(COC(N)=O)CSC12)c1ccco1 (configuration not stated)", 0.958),
    ("COc1c2ccoc2c(OC)c2oc(=O)ccc12", 0.876),
    ("C=C1CCC2C(CC2(C)C)C(=C)CC/C1=N\\O (configuration not stated)", 0.972),
    ("CCCCCCOc1ccccc1C(N)=O", 0.87),
    ("CC[N+](CC)(CC)CCOc1cccc(OCC[N+](CC)(CC)CC)c1OCC[N+](CC)(CC)CC", 0.958),
]

# normalized growth lookup, item CC(C)C(NC(=O)C(Cc1ccc(O)cc1)NC(=O)C(NC(=O)C(F)(F)F)C(C)C)C(=O)O (stereo not drawn) (Tfa-Val-Tyr-Val-OH; configuration not given here)
0.985

Same question for C=C1CCC(OC(C)=O)/C(C)=C/C[C@@H]2[C@@H]1CC2(C)C (some centres not stated) please.
0.963

Same question for C=CCCCCCCCCCCCC(O)CC(O)COC(C)=O (configuration not stated) (tested in a mixture with another compound) please.
0.917

Same question for `Cc1cccc(C)c1NC1=NCCCS1` please.
1.01

Same question for `O=C1OC2(c3ccc(O)cc3Oc3cc(O)ccc32)c2ccccc21` please.
1

Same question for CCCCN1CCCCC1C(=O)Nc1c(C)cccc1C (configuration not stated) please.
0.977

Same question for `CCN(CC)CCOC(=O)c1ccc(N)cc1` please.
0.946

Same question for `CN1C(C(=O)Nc2ccccn2)=C(O)c2ccccc2S1(=O)=O` please.
0.971

Same question for `O=C(O)CN(CC(=O)O)Cc1cc2c(-c3ccccc3C(=O)O)c3cc(CN(CC(=O)O)CC(=O)O)c(=O)cc-3oc2cc1O` please.
0.904

Same question for `CCCCOC(=O)c1ccc(N)cc1` please.
0.867

Same question for CC(C)NCC(O)c1cc(O)cc(O)c1 (configuration not stated) please.
0.929

Same question for CCCC(=O)O[C@]1(C(=O)CO)CCC2[C@@H]3CCC4=CC(=O)CC[C@]4(C)C3[C@@H](O)C[C@@]21C (some centres not stated) please.
1

Same question for CC(=O)OCC(OC(C)=O)C(OC(C)=O)C(OC(C)=O)C(OC(C)=O)C(COC(C)=O)OC(C)=O (configuration not stated) please.
0.978

Same question for CC1C[C@H]2CC(=O)[C@H]3CCCN4CCC[C@H]2[C@]34C1 (some centres not stated) please.
1.01

====

# protocol: chemical genetic growth profiling, strain panel (AID 1159580)
# conditions used: S. cerevisiae deletion strains, growth OD, locus YBR021W, strain FUR4, stronger effect = lower value
Screen size: about 5,500 compounds; about 2,000 (36%) were called active. Another 18% or so got no clear call; they are omitted. This is one part of the list.
measurement name: normalized growth
I'd appreciate a reply containing only the number, no unit.

Worked examples, 4 compounds total:
# compound, normalized growth
measured = [
    ("CC1(C)C2(Cl)C(Cl)C(Cl)C(Cl)(C(Cl)Cl)C1(Cl)C2Cl (stereo not given)", 0.985),
    ("O=c1[nH]oc2c1CCNC2", 1.01),
    ("COc1cc(-c2coc3cc(OCc4ccccc4)c(OC)c(O)c3c2=O)cc(OCc2ccccc2)c1OC", 1.01),
    ("COC(=O)C[C@H]1C(C)(C)C(=O)[C@@H]2CC3=C(CC[C@]4(C)C3=CC(=O)O[C@H]4c3ccoc3)[C@@]1(C)C2=O", 0.992),
]

# normalized growth lookup, item CO[C@@]1(NC(=O)CSCC#N)C(=O)N2C(C(=O)O)=C(CSc3nnnn3C)CSC21 (stereo not given in full)
1

====

# protocol: chemical genetic growth profiling, strain panel (AID 1159580);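 also: tested at 20 µM; growth read once vehicle control cultures reached saturation at 30 °C; 1 = growth at the plate median or of vehicle wells; lower values mean less growth of the strain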
# conditions used: S. cerevisiae deletion strains, growth OD, locus YMR058W, strain fet3, stronger effect = lower value
The whole screen tested about 5,500 compounds, of which about 2,000 (36%) were called active. Inconclusive results (about 18%) are left out. The list shows a part of the results.
measurement name: normalized growth
I'd appreciate a reply containing only the number, no unit.

Worked examples, 5 compounds total:
# compound, normalized growth
rows = [
    ("CC(=O)OCC[C@H](C)CCC=C(C)C", 0.989),
    ("CC(=O)OCC(OC(C)=O)C(OC(C)=O)C(OC(C)=O)C(OC(C)=O)C(COC(C)=O)OC(C)=O (stereo not drawn)", 0.994),
    ("C#CCCCCCCCCCCCC(O)CC(O)COC(C)=O (stereo not drawn)", 0.749),
    ("Clc1cccc(Cl)c1NC1=NCCN1", 0.99),
    ("C#CCCCCCCCCCCCC(O)CC(O)CO (stereo not drawn)", 0.991),
]

# normalized growth lookup, item `Cc1cccc(C)c1NC1=NCCCS1`
1.02

Same question for O=C1CC2OCC=C3CN4CC[C@]56c7ccccc7N1C5[C@H]2[C@H]3CC46 (stereo partly drawn) please.
1.02

Same question for C=C1CCC2C(CC2(C)C)C(=O)CCC1O (stereo not drawn) please.
0.98

====

As shown below, each of these compounds has a reported normalized growth value.
# protocol: chemical genetic growth profiling, strain panel (AID 1159580);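 also: tested at 20 µM; growth read once vehicle control cultures reached saturation at 30 °C; 1 = growth at the plate median or of vehicle wells; lower values mean less growth of the strain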
# conditions used: S. cerevisiae deletion strains, growth OD, locus YLL026W, stronger effect = lower value
In all, about 5,500 compounds went through this assay and about 2,000 (36%) were called active. Inconclusive results (about 18%) are left out. The list shows a part of the results.
I'd appreciate a reply containing only the number, no unit.

Worked examples, 7 compounds total:
# compound, normalized growth
rows = [
    ("COc1c2ccoc2c(OC)c2oc(=O)ccc12", 0.979),
    ("COC(=O)C1=CCCN(C)C1", 1.02),
    ("CCCCC(=O)Oc1ccccc1C(=O)O", 0.983),
    ("CC(=O)Oc1c(C)cccc1C(=O)O", 1.01),
    ("CCCCOC(=O)c1ccc(N)cc1", 0.888),
    ("COc1c(OC)c2occc2c2oc(=O)ccc12", 0.991),
    ("COc1cc(-c2coc3cc(OC)c(OC)c(OC)c3c2=O)cc(OC)c1OC", 0.996),
]

# normalized growth lookup, item CC1=CC2C(CC1=O)C(C)=CCC2C(C)C (stereo not drawn)
1.01

====

As shown below, each of these molecules has a reported normalized growth value.
# protocol: chemical genetic growth profiling, strain panel (AID 1159580);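 also: tested at 20 µM; growth read once vehicle control cultures reached saturation at 30 °C; 1 = growth at the plate median or of vehicle wells; lower values mean less growth of the strain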
# conditions used: S. cerevisiae deletion strains, growth OD, locus YOR270C, strain vph1, stronger effect = lower value
Among all 5,500 compounds or so, about 2,000 (36%) were called active. Not shown: some 18% with an inconclusive outcome. The list shows a part of the results.
I'd appreciate a reply containing only the number, no unit.

Worked examples, 4 molecules total:
# molecule, obs value
measured = [
    ("N[C@@H](CC(=O)N1CCn2c(nnc2C(F)(F)F)C1)Cc1cc(F)c(F)cc1F", 0.984),
    ("CCCC(=O)O[C@]1(C(=O)CO)CCC2[C@@H]3CCC4=CC(=O)CC[C@]4(C)C3[C@@H](O)C[C@@]21C (stereo not given in full)", 1.01),
    ("COC(=O)C1=CCCN(C)C1", 1.01),
    ("NC(CO)C(=O)NNCc1ccc(O)c(O)c1O (stereo not given)", 0.996),
]

# normalized growth lookup, item CO[C@@]1(NC(=O)CSCC#N)C(=O)N2C(C(=O)O)=C(CSc3nnnn3C)CSC21 (stereo not given in full)
0.993
